Target Under Test: T1, recombinant human GM-CSF (human, UniProt P04141 18-144)
T1 construct: also called rhGM-CSF; CSF2
T1 sequence (P04141 18-144 limits assumed): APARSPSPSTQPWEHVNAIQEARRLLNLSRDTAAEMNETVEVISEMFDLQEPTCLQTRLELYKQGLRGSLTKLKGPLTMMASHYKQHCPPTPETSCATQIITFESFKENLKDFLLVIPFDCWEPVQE
Protocol Summary: ELISA on coated rhGM-CSF, UBA relative to 1D2
Exercise: state measured binding affinity % of 1D2 for each of the binders provided.
Give your result as the value with the unit written after it.

Here are 2 binders together with their reported answers.
{"Binder": "1D2 SDR mutant HK32N (antibody, IgG1, V domains shown, also called X2 N) VH: QVQLVQSGAEVKKPGASVKVSCEASGYTFTDNYLHWVRQAPGQGLEWMAWINPKSGGTFYAQNFKGRVTVTRDTSINTAYLELTSLRLDDTSTYYCARGRDYYDQGAADLWGQGTMVTVSS VL: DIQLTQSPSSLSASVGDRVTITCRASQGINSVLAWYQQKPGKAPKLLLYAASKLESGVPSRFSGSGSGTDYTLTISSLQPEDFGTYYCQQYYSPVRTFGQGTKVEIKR", "binding affinity % of 1D2": "97%"}
{"Binder": "1D2 SDR mutant LV95D (antibody, IgG1, V domains shown, also called X10 D) VH: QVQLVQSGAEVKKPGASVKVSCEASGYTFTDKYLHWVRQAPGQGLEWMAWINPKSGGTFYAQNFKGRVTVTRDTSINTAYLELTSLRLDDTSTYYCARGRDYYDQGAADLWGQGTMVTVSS VL: DIQLTQSPSSLSASVGDRVTITCRASQGINSVLAWYQQKPGKAPKLLLYAASKLESGVPSRFSGSGSGTDYTLTISSLQPEDFGTYYCQQYYSPDRTFGQGTKVEIKR", "binding affinity % of 1D2": "47%"}

Proceeding to the next binder to report its binding affinity % of 1D2.
Input: I would be grateful if you could share the reported binding affinity % of 1D2 for 1D2 SDR mutant HR100G (antibody, IgG1, V domains shown, also called X4 G) VH: QVQLVQSGAEVKKPGASVKVSCEASGYTFTDKYLHWVRQAPGQGLEWMAWINPKSGGTFYAQNFKGRVTVTRDTSINTAYLELTSLRLDDTSTYYCARGGDYYDQGAADLWGQGTMVTVSS VL: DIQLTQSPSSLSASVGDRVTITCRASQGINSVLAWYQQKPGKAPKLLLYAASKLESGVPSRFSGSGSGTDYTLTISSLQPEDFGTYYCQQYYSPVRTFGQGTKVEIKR .
Output: 125%
